Procedure Details: TIMS collisional cross section (CCS, N2) of the lipid ion; higher = larger ion cross section
Recorded Conditions: sample type: Liver; ionization mode: positive; one isomer drawn
Documented TIMS collisional cross section across a set of molecules

# Molecule, Result Unit, TIMS collisional cross section
data = [
    ("CCCCC/C=C\\C/C=C\\CCCCCCCC(=O)O[C@H](COC(=O)CCCCCCCCCCCCCCC)COP(=O)(O)OCCN [PE 16:0_18:2] (ion (formula + adduct): [C39H74NO8P+H] 1+)", "Å²", 272.9),
    ("CCCCCCCCCCCCCCCC(=O)OC[C@H](COP(=O)([O-])OCC[N+](C)(C)C)OC(=O)CCCCCCCCCCCCCCC [PC 16:0_16:0] (ion (formula + adduct): [C40H80NO8P+H] 1+)", "Å²", 285.5),
    ("CCCCC/C=C\\C/C=C\\CCCCCCCC(=O)O[C@H](COC(=O)CCCCCCCCCCCCCCCCC)COP(=O)(O)OCCN [PE 18:0_18:2] (ion (formula + adduct): [C41H78NO8P+H] 1+)", "Å²", 279.7),
    ("CC/C=C\\C/C=C\\C/C=C\\C/C=C\\C/C=C\\CCCC(=O)O[C@H](COC(=O)CCCCCCCCCCCCCCCCC)COP(=O)([O-])OCC[N+](C)(C)C [PC 18:0@_20:5] (ion (formula + adduct): [C46H82NO8P+H] 1+)", "Å²", 296.3),
    ("CCCCC/C=C\\C/C=C\\CCCCCCCC(=O)OC[C@H](CO)OC(=O)CCCCCCCCCCC/C=C\\CCCCCCCC [DG 18:2_22:1_0:0] (ion (formula + adduct): [C43H78O5+NH4] 1+)", "Å²", 275.5),
]
